- study-target: T1, Claudin 18.2 (CLDN18.2), expressed on CHOS-CLDN 18.2 / HEK293-CLDN 18.2 / HCC827-CLDN 18.2 cells (human, UniProt P56856-2 1-261)
- T1 construct: whole, on cells; The species is not repeated for the CHOS-CLDN 18.2 cells; also called claudin-18A2
- assay-overview: FACS, CHOS-CLDN18.2 cells, 10 µg/ml
Each entry below carries its reported MFI.
Answer as a number with no unit attached.

Please review the entries below; each comes with its answer.
binder	assay-readout	recorded-value
QP201202 (antibody, human IgG1, V domains shown, Chimeric; also called 44C6) VH: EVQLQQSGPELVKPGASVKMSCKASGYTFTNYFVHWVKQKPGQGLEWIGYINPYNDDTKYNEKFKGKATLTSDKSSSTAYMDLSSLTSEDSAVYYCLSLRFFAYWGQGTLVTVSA VL: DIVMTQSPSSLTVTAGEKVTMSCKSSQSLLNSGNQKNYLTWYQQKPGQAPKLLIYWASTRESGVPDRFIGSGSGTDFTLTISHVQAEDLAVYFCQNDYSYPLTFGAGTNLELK	MFI	439000
QP14451440 (antibody, human IgG1, kappa, V domains shown, Humanized from QP192193; also called QP14401445) VH: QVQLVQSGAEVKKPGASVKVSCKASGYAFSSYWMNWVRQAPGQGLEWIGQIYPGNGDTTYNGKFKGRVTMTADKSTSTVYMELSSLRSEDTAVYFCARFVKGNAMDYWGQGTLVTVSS VL: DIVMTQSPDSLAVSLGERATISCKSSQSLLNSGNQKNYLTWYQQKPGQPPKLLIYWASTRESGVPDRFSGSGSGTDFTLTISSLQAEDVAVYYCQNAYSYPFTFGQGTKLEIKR	MFI	620000

// switching to the query binder
// fetch MFI given entry QP14581454 (antibody, human IgG1, kappa, V domains shown, Humanized from QP201202) VH: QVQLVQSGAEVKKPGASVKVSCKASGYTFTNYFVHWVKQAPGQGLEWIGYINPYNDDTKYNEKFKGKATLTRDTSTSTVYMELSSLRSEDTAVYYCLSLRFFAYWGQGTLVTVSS VL: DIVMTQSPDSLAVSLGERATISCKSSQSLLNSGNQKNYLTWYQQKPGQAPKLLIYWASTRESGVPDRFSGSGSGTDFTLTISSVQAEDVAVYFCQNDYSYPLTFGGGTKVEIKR
502000

meta.source: patent US20230183352A1
